# credit: the RNAGym collection of RNA variant scans (doi:10.1021/acssynbio.7b00057)

What aptazyme ON/OFF ratio was measured for each of the following?
B1: Pistol ribozyme (parent)
chain: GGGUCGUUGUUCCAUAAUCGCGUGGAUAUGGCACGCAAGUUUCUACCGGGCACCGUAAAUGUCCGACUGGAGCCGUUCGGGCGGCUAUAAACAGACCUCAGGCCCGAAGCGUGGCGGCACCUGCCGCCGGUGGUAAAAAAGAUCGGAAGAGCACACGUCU

Variants of: B1
PROTOCOL_DESCRIPTION: aptazyme ON/OFF ratio, guanine; higher = stronger switching; co-transcriptional cleavage with and without guanine
// print number alone

IN: Name the reported aptazyme ON/OFF ratio value associated with the variant G9A U10G U11G
OUT: 1.11

IN: Name the reported aptazyme ON/OFF ratio value associated with the variant U7C U8G G9A U10A C12G C13A
OUT: 1.11

IN: Name the reported aptazyme ON/OFF ratio value associated with the variant G9U U10A C12A C13G
OUT: 0.84

IN: Name the reported aptazyme ON/OFF ratio value associated with the variant G9A U10G U11C
OUT: 1.1

IN: Name the reported aptazyme ON/OFF ratio value associated with the variant U7G U8C G9C U11C C12U C13G
OUT: 1.1

IN: Name the reported aptazyme ON/OFF ratio value associated with the variant U7C U8C G9A U10C U11C C13A
OUT: 1.08

IN: Name the reported aptazyme ON/OFF ratio value associated with the variant U8A G9U U11G C12G C13A
OUT: 1.25

IN: Name the reported aptazyme ON/OFF ratio value associated with the variant U7A G9A U10A U11A C12A
OUT: 1.25

IN: Name the reported aptazyme ON/OFF ratio value associated with the variant U7A U8A G9A U10C C13A
OUT: 1.13

IN: Name the reported aptazyme ON/OFF ratio value associated with the variant G9U U10A U11A C12U C13U
OUT: 1.08

IN: Name the reported aptazyme ON/OFF ratio value associated with the variant U7A U8C U10C U11A C12A
OUT: 1.29

IN: Name the reported aptazyme ON/OFF ratio value associated with the variant U7G U8A G9U U10G U11G C12U C13U
OUT: 1.12

IN: Name the reported aptazyme ON/OFF ratio value associated with the variant U7A G9C U10G C12G
OUT: 1.11

IN: Name the reported aptazyme ON/OFF ratio value associated with the variant U8G G9A U10G U11C C13U
OUT: 1.05

IN: Name the reported aptazyme ON/OFF ratio value associated with the variant U7G U8C U10C C12A
OUT: 1.22

IN: Name the reported aptazyme ON/OFF ratio value associated with the variant U7C U8A U11A C13U
OUT: 1.12

IN: Name the reported aptazyme ON/OFF ratio value associated with the variant U7C G9U U10A C13U
OUT: 1.22

IN: Name the reported aptazyme ON/OFF ratio value associated with the variant U7A G9U U10A C12G C13G
OUT: 1.26

IN: Name the reported aptazyme ON/OFF ratio value associated with the variant U7C U8C G9C U10C U11G C12G
OUT: 1.13

IN: Name the reported aptazyme ON/OFF ratio value associated with the variant U8G G9C U10C C12A C13U
OUT: 1.05

IN: Name the reported aptazyme ON/OFF ratio value associated with the variant U7A G9C U11G C13G
OUT: 1.07

IN: Name the reported aptazyme ON/OFF ratio value associated with the variant U7G U8C G9A U10C U11C C12U C13G
OUT: 1.04

IN: Name the reported aptazyme ON/OFF ratio value associated with the variant U7C U8A U10A U11C C13U
OUT: 1.01

IN: Name the reported aptazyme ON/OFF ratio value associated with the variant U7A U8A U10A U11G C12G
OUT: 0.984

IN: Name the reported aptazyme ON/OFF ratio value associated with the variant U7A G9A U10C U11A C12A
OUT: 1.24

IN: Name the reported aptazyme ON/OFF ratio value associated with the variant U7C U8C U10C U11A C12G C13A
OUT: 1.15

IN: Name the reported aptazyme ON/OFF ratio value associated with the variant U7A G9U C12U
OUT: 1.34

IN: Name the reported aptazyme ON/OFF ratio value associated with the variant U7C G9U U10A C12U
OUT: 1.37

IN: Name the reported aptazyme ON/OFF ratio value associated with the variant U7C G9C U10A U11G C12A C13U
OUT: 1.06

IN: Name the reported aptazyme ON/OFF ratio value associated with the variant `U8G`
OUT: 3.01

IN: Name the reported aptazyme ON/OFF ratio value associated with the variant U7G G9U U10A U11G C12A C13G
OUT: 1.11

IN: Name the reported aptazyme ON/OFF ratio value associated with the variant U7G U8C G9C U10C U11G C12G C13G
OUT: 1.09

IN: Name the reported aptazyme ON/OFF ratio value associated with the variant U7C U8G U10A C12U C13A
OUT: 1.13

IN: Name the reported aptazyme ON/OFF ratio value associated with the variant U7A U8G U10A C12U C13U
OUT: 1.42

IN: Name the reported aptazyme ON/OFF ratio value associated with the variant U7C U8A G9C U10G U11C C13A
OUT: 1.39

IN: Name the reported aptazyme ON/OFF ratio value associated with the variant U7C U8C G9C U10G U11G C13U
OUT: 1.1

IN: Name the reported aptazyme ON/OFF ratio value associated with the variant U7A U8G U10G C12G C13U
OUT: 1.21

IN: Name the reported aptazyme ON/OFF ratio value associated with the variant G9A U11A C12U C13U
OUT: 1.91

IN: Name the reported aptazyme ON/OFF ratio value associated with the variant U7C U8A U10G C12U C13U
OUT: 1.24

IN: Name the reported aptazyme ON/OFF ratio value associated with the variant U7G U8G G9C U10G U11G C13G
OUT: 1.17

IN: Name the reported aptazyme ON/OFF ratio value associated with the variant U7G U11C C12G
OUT: 1.26

IN: Name the reported aptazyme ON/OFF ratio value associated with the variant U7C U8G G9U U10A C12G C13U
OUT: 1.21

IN: Name the reported aptazyme ON/OFF ratio value associated with the variant U7C U8C G9C U11C C12G C13A
OUT: 1.09

IN: Name the reported aptazyme ON/OFF ratio value associated with the variant U7C U8G G9A U10C C12U C13A
OUT: 1.08

IN: Name the reported aptazyme ON/OFF ratio value associated with the variant U7G G9U U10C U11G C12A C13G
OUT: 1.13

IN: Name the reported aptazyme ON/OFF ratio value associated with the variant U7C U10A U11G C12A
OUT: 1.29
